Reported pKd is given for each of the following binders.
Biological target: MAGI2_2, Q86UL8
Sequence (Q86UL8 410-522): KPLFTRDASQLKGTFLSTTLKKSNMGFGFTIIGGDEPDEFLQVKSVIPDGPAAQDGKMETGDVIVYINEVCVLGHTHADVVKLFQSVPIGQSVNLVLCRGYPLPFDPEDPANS
Assay: holdup assay
Set-up: key: below the threshold = too weak to quantify, mostly under pKd 3.1 to 4
Details: plain residues with an end cap or a label only (N-terminal biotin on a linker: ttds)

1) GARVSKETPL [MAPK12, P53778] :: 3.83
2) KLVIKTETTV [RASSF6, Q6ZTQ3] :: 5.11

Please examine the following record next.
# query: pKd of entry FVETQHQTQV [FAT3, Q8TDW7]
4.02
